The reported measurements were obtained from ChEMBL document CHEMBL2417377.

- Experimental Target: Casein kinase II subunit alpha' (Homo sapiens) (UniProt P19784)
- Sequence (P19784 whole entry, looked up): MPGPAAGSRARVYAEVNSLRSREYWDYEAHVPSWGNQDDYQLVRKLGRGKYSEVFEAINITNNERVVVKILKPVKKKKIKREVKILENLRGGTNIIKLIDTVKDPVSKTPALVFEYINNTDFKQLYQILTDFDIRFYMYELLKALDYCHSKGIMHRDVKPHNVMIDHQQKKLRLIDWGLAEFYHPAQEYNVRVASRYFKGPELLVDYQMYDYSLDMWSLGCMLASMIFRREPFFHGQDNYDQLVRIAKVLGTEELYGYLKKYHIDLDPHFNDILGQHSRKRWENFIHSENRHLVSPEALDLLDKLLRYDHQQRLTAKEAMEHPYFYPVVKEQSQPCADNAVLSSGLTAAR
- Test Details: Inhibition of CK2alpha2 in human PC3 cell lysates at 30 uM using desthiobiotin-tagged ATP probe AX9989 followed by trypsinization by LC/MS analysis
- Condition Notes: PC-3
Recorded inhibition by entry

// worked examples, inhibition included
Molecular String	Measured Parameter	Endpoint Result
c1ccc2c(c1)nc(NC1CCCCC1)c1nccn12	inhibition	< 35%
c1ccc(CCNc2nc3ccccc3n3ccnc23)cc1	inhibition	< 35%
O[C@H]1CC[C@H](Nc2nc3ccccc3n3ccnc23)CC1	inhibition	49.6%

Query: I have this molecule here, "c1ccc(CNc2nc3ccccc3n3ccnc23)cc1" , and I need its recorded inhibition.
Response: < 35%
